# Tested on: lymphocytic leukemia P388
# experimental_details: in vivo lymphocytic leukemia P388 test
# conditions: Mus musculus, P388, ip, 120 h; Dose 12.5 mg/kg intraperitoneally once daily for five days, mice, survival time treated/control; read-out: P388 in vivo T/C×100
Where a name gives a salt, the structure may show the parent alone.
response vs control in vivo at 12.5 mg/kg values by entry
readout: response vs control in vivo at 12.5 mg/kg (%)

molecule: CCN(CC)CCn1nc2c3c(c(NCCNCCO)ccc31)Oc1ccc(O)cc1-2
recorded_result: 272

molecule: CCN(CC)CCn1nc2c3c(c(NCCN)ccc31)Oc1ccccc1-2 [Example 4, trihydrobromide, dihydrate]
recorded_result: 174

molecule: CCN(CC)CCn1nc2c3c(c(N)ccc31)Oc1ccc(O)cc1-2.Cl.Cl [Example 12, dihydrochloride]
recorded_result: 201

molecule: O=[N+]([O-])c1ccc2c3c(nn2CCNCCO)-c2cc(O)ccc2Oc13 [Example 15, hydrochloride]
recorded_result: 190

molecule: Cl.Nc1ccc2c3c(nn2CCNCCO)-c2cc(O)ccc2Oc13 [Example 16, hydrochloride]
recorded_result: 200

molecule: CCN(CC)CCn1nc2c3c(c(NCCN)ccc31)Oc1ccc(OC)cc1-2 [Example 6, trihydrobromide]
recorded_result: 154

molecule: OCCNCCNc1ccc2c3c(nn2CCNCCO)-c2cc(O)ccc2Oc13 [Example 18, hydrochloride]
recorded_result: 236

molecule: CN(C)CCCn1nc2c3c(c([N+](=O)[O-])ccc31)Oc1ccc(O)cc1-2.CS(=O)(=O)O
recorded_result: 200

---

# Tested on: lymphocytic leukemia P388
# experimental_details: in vivo lymphocytic leukemia P388 test
# conditions: Mus musculus, P388, ip, 120 h; Dose 25 mg/kg intraperitoneally once daily for five days, mice, survival time treated/control; read-out: P388 in vivo T/C×100
Where a name gives a salt, the structure may show the parent alone.
Rule: measured response vs control in vivo at 25 mg/kg below 200% gets Y; anything equal to or greater than 200% gets N.

compound: CCN(CC)CCn1nc2c3c(c(N)ccc31)Oc1ccc(O)cc1-2.Cl.Cl [Example 12, dihydrochloride]
study_target: lymphocytic leukemia P388
class_label: Y
//
compound: CCN(CC)CCn1nc2c3c(c(NCCN)ccc31)Oc1ccc(OC)cc1-2 [Example 6, trihydrobromide]
study_target: lymphocytic leukemia P388
class_label: Y
//
compound: Cl.Nc1ccc2c3c(nn2CCNCCO)-c2cc(O)ccc2Oc13 [Example 16, hydrochloride]
study_target: lymphocytic leukemia P388
class_label: N
//
compound: CN(C)CCCn1nc2c3c(c([N+](=O)[O-])ccc31)Oc1ccc(O)cc1-2.CS(=O)(=O)O [Example 11]
study_target: lymphocytic leukemia P388
class_label: N

---

# Test system: lymphocytic leukemia P388
# experimental_details: in vivo lymphocytic leukemia P388 test
# conditions: Mus musculus, P388, ip, 120 h; Dose 6.25 mg/kg intraperitoneally once daily for five days, mice, survival time treated/control; read-out: P388 in vivo T/C×100
Where a name gives a salt, the structure may show the parent alone.
readout: response vs control in vivo at 6.25 mg/kg (%)

compound: CCN(CC)CCn1nc2c3c(c(N)ccc31)Oc1ccc(O)cc1-2.Cl.Cl [Example 12, dihydrochloride]
recorded_result: 167
//
compound: CN(C)CCCn1nc2c3c(c([N+](=O)[O-])ccc31)Oc1ccc(O)cc1-2.CS(=O)(=O)O
recorded_result: 150
//
compound: Cl.Nc1ccc2c3c(nn2CCNCCO)-c2cc(O)ccc2Oc13 [Example 16, hydrochloride]
recorded_result: 165
//
compound: CCN(CC)CCn1nc2c3c(c(NCCNCCO)ccc31)Oc1ccc(O)cc1-2
recorded_result: 236
//
compound: OCCNCCNc1ccc2c3c(nn2CCNCCO)-c2cc(O)ccc2Oc13 [Example 18, hydrochloride]
recorded_result: 173

---

# System: Rhodotorula aurantiaca
# experimental_details: in vitro antibacterial (ABMF) microdilution susceptibility test
# Assay type: cell-based
# conditions: Buckleyzyma aurantiaca; Mueller-Hinton broth microdilution, 37°C, 16-24 hours; read-out: ABMF Minimal Inhibitory Concentration (µ/ml) R. aurant
Structures can show the parent of a compound that is named as a salt.
readout: MIC (µg/mL)

compound: CCN(CC)CCn1nc2c3c(c([N+](=O)[O-])ccc31)Oc1cc(O)ccc1-2 [Example 20, hydrochloride]
limit_qualifier: >
recorded_result: 1000
--
compound: O=C(CNCCO)Nc1ccc2c3c(nn2CCNCCO)-c2cc(O)ccc2Oc13 [Example 17, hydrochloride]
limit_qualifier: =
recorded_result: 1000
--
compound: CCN(CC)CCn1nc2c3c(c([N+](=O)[O-])ccc31)Oc1cc(OC)ccc1-2 [Example 19, hydrochloride]
limit_qualifier: =
recorded_result: 333
--
compound: CCN(CC)CCn1nc2c3c(c(NCCN)ccc31)Oc1ccc(OC)cc1-2 [Example 6, trihydrobromide]
limit_qualifier: =
recorded_result: 333

---

# Tested on: Rhodotorula aurantiaca
# experimental_details: in vitro antibacterial (ABMF) microdilution susceptibility test
# Format: cell-based
# conditions: Buckleyzyma aurantiaca; Mueller-Hinton broth microdilution, 37°C, 16-24 hours; read-out: ABMF Minimal Inhibitory Concentration (µ/ml) R. aurant

smiles_input: Cl.Nc1ccc2c3c(nn2CCNCCO)-c2cc(O)ccc2Oc13
MIC: > 1000 µg/mL
//
smiles_input: CCN(CC)CCn1nc2c3c(c(NC(=O)CNCCO)ccc31)Oc1ccc(O)cc1-2.Cl
MIC: > 1000 µg/mL
//
smiles_input: CCN(CC)CCn1nc2c3c(c(N)ccc31)Oc1ccc(O)cc1-2.Cl.Cl
MIC: > 1000 µg/mL

---

# Tested on: Rhodotorula aurantiaca
# experimental_details: in vitro antibacterial (ABMF) microdilution susceptibility test
# Format: cell-based
# conditions: Buckleyzyma aurantiaca; Mueller-Hinton broth microdilution, 37°C, 16-24 hours; read-out: ABMF Minimal Inhibitory Concentration (µ/ml) R. aurant
Structures can show the parent of a compound that is named as a salt.
Readings of MIC for the listed compounds

compound: O=[N+]([O-])c1ccc2c3c(nn2CCN2CCCC2)-c2cc(O)ccc2Oc13 [Example 10]
MIC: 1000 µg/mL
--
compound: COc1ccc2c(c1)-c1nn(CCN3CCCC3)c3ccc([N+](=O)[O-])c(c13)O2.Cl [Example 8]
MIC: 111 µg/mL
--
compound: COc1ccc2c(c1)-c1nn(CCCN(C)C)c3ccc([N+](=O)[O-])c(c13)O2 [Example 7]
MIC: 1000 µg/mL
--
compound: COc1ccc2c(c1)-c1nn(CCN3CCCC3)c3ccc(N)c(c13)O2 [Example 9, monohydrochloride]
MIC: 333 µg/mL
--
compound: O=[N+]([O-])c1ccc2c3c(nn2CCNCCO)-c2cc(O)ccc2Oc13 [Example 15, hydrochloride]
MIC: 1000 µg/mL
--
compound: OCCNCCNc1ccc2c3c(nn2CCNCCO)-c2cc(O)ccc2Oc13 [Example 18, hydrochloride]
MIC: > 1000 µg/mL
--
compound: CCN(CC)CCn1nc2c3c(c(NCCNCCO)ccc31)Oc1ccc(O)cc1-2 [Example 14]
MIC: > 33 µg/mL
--
compound: CN(C)CCCn1nc2c3c(c([N+](=O)[O-])ccc31)Oc1ccc(O)cc1-2.CS(=O)(=O)O [Example 11]
MIC: 1000 µg/mL

---

# Test system: lymphocytic leukemia P388
# experimental_details: in vivo lymphocytic leukemia P388 test
# conditions: Mus musculus, P388, ip, 120 h; Dose 25 mg/kg intraperitoneally once daily for five days, mice, survival time treated/control; read-out: P388 in vivo T/C×100
Structures can show the parent of a compound that is named as a salt.
Items are presented alongside their recorded response vs control in vivo at 25 mg/kg.

compound: OCCNCCNc1ccc2c3c(nn2CCNCCO)-c2cc(O)ccc2Oc13 [Example 18, hydrochloride]
response vs control in vivo at 25 mg/kg, %: 236
//
compound: CCN(CC)CCn1nc2c3c(c(NCCN)ccc31)Oc1ccccc1-2 [Example 4, trihydrobromide, dihydrate]
response vs control in vivo at 25 mg/kg, %: 216
//
compound: O=[N+]([O-])c1ccc2c3c(nn2CCNCCO)-c2cc(O)ccc2Oc13 [Example 15, hydrochloride]
response vs control in vivo at 25 mg/kg, %: 218
//
compound: CCN(CC)CCn1nc2c3c(c([N+](=O)[O-])ccc31)Oc1ccc(OC)cc1-2
response vs control in vivo at 25 mg/kg, %: 126

---

# Test system: Corynebacterium Sp. ATCC 21698
# experimental_details: in vitro antibacterial (ABMF) microdilution susceptibility test
# Format: cell-based
# conditions: ATCC21698, Mueller-Hinton broth microdilution, 37°C, 16-24 hours, read-out: ABMF Minimal Inhibitory Concentration (µ/ml) Coryn. sp.
Structures can show the parent of a compound that is named as a salt.
The entries below come with measured MIC values attached.
readout: MIC (µg/mL)

compound: COc1ccc2c(c1)-c1nn(CCCN(C)C)c3ccc([N+](=O)[O-])c(c13)O2
limit_qualifier: <
recorded_result: 0.46

compound: O=[N+]([O-])c1ccc2c3c(nn2CCN2CCCC2)-c2cc(O)ccc2Oc13
limit_qualifier: <
recorded_result: 0.46

compound: CCN(CC)CCn1nc2c3c(c([N+](=O)[O-])ccc31)Oc1ccc(OC)cc1-2
limit_qualifier: <
recorded_result: 0.46

compound: COc1ccc2c(c1)-c1nn(CCN3CCCC3)c3ccc(N)c(c13)O2 [Example 9, monohydrochloride]
limit_qualifier: =
recorded_result: 4.1

compound: CCN(CC)CCn1nc2c3c(c(N)ccc31)Oc1ccc(O)cc1-2.Cl.Cl
limit_qualifier: =
recorded_result: 12.3

compound: CCN(CC)CCn1nc2c3c(c([N+](=O)[O-])ccc31)Oc1cc(OC)ccc1-2 [Example 19, hydrochloride]
limit_qualifier: <
recorded_result: 0.46

compound: COc1ccc2c(c1)-c1nn(CCN3CCCC3)c3ccc([N+](=O)[O-])c(c13)O2.Cl
limit_qualifier: <
recorded_result: 0.46

compound: Cl.Nc1ccc2c3c(nn2CCNCCO)-c2cc(O)ccc2Oc13
limit_qualifier: =
recorded_result: 12.3

compound: OCCNCCNc1ccc2c3c(nn2CCNCCO)-c2cc(O)ccc2Oc13 [Example 18, hydrochloride]
limit_qualifier: =
recorded_result: 37

compound: CCN(CC)CCn1nc2c3c(c([N+](=O)[O-])ccc31)Oc1cc(O)ccc1-2 [Example 20, hydrochloride]
limit_qualifier: <
recorded_result: 0.46

compound: O=[N+]([O-])c1ccc2c3c(nn2CCNCCO)-c2cc(O)ccc2Oc13 [Example 15, hydrochloride]
limit_qualifier: =
recorded_result: 1.4

compound: CCN(CC)CCn1nc2c3c(c(NCCNCCO)ccc31)Oc1ccc(O)cc1-2
limit_qualifier: =
recorded_result: 33

compound: CCN(CC)CCn1nc2c3c(c(NC(=O)CNCCO)ccc31)Oc1ccc(O)cc1-2.Cl
limit_qualifier: =
recorded_result: 333

compound: CCN(CC)CCn1nc2c3c(c(NCCN)ccc31)Oc1ccc(OC)cc1-2 [Example 6, trihydrobromide]
limit_qualifier: =
recorded_result: 4.1

compound: O=C(CNCCO)Nc1ccc2c3c(nn2CCNCCO)-c2cc(O)ccc2Oc13 [Example 17, hydrochloride]
limit_qualifier: =
recorded_result: 333

compound: CN(C)CCCn1nc2c3c(c([N+](=O)[O-])ccc31)Oc1ccc(O)cc1-2.CS(=O)(=O)O
limit_qualifier: <
recorded_result: 0.46

Entry source: patent EP0172632B1
